Recorded IC50 values for a group of compounds are listed next.
biological target: UniProt:Q9GZQ6; test: cAMP functional experiment, NPFF1 receptor (forskolin-induced cAMP accumulation)
Sequence (Q9GZQ6 whole entry): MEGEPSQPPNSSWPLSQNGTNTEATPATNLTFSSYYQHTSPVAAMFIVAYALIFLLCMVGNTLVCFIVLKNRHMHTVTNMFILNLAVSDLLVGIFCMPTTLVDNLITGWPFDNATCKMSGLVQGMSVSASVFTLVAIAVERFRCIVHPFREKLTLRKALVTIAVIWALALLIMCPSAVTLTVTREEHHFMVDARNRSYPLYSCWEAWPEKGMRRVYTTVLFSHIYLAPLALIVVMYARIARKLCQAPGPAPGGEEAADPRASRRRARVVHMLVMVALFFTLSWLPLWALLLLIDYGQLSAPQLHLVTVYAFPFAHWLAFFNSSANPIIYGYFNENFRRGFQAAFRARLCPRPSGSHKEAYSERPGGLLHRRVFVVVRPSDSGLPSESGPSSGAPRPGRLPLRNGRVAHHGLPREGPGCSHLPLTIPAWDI
Bridge positions count the residues as written; N and C are the ends. Square brackets hold non-standard residues; d marks the D form. Peptide text beside a SMILES is read from it. NMeF = CN[C@@H](Cc1ccccc1)C(=O)O
Report as a plain number; the unit nM is understood.

compound: CN1C(=O)CNC(=O)[C@H](NC(=O)[C@@H](N)Cc2ccc(O)cc2)CCCCNC(=O)C[C@H](C(=O)N2CCC[C@H]2C(=O)N[C@@H](CCC(N)=O)C(=O)N[C@@H](CCCNC(=N)N)C(=O)N[C@@H](Cc2ccccc2)C(N)=O)NC(=O)[C@@H]1Cc1ccccc1 [Compound 5] (H-Y[dK]G[NMeF][dD]PQRF-NH2; lactam 2-5)
targetEntity: UniProt:Q9GZQ6
IC50 [nM]: 528
//
compound: CN1C(=O)CNC(=O)[C@H](NC(=O)[C@@H](N)Cc2ccc(O)cc2)CC(=O)NCCCC[C@@H](C(=O)N2CCC[C@H]2C(=O)N[C@@H](CCC(N)=O)C(=O)N[C@@H](CCCNC(=N)N)C(=O)N[C@@H](Cc2ccccc2)C(N)=O)NC(=O)[C@@H]1Cc1ccccc1 [Compound 6] (H-Y[dD]G[NMeF]KPQRF-NH2; lactam 2-5)
targetEntity: UniProt:Q9GZQ6
IC50 [nM]: 222

Now consider a different compound.
Bench note: what IC50 did CN1C(=O)CNC(=O)[C@H](NC(=O)[C@@H](N)Cc2ccc(O)cc2)CCCCNC(=O)CC[C@@H](C(=O)N2CCC[C@H]2C(=O)N[C@@H](CCC(N)=O)C(=O)N[C@@H](CCCNC(=N)N)C(=O)N[C@@H](Cc2ccccc2)C(N)=O)NC(=O)[C@@H]1Cc1ccccc1 [Compound 2] (H-Y[dK]G[NMeF]EPQRF-NH2; lactam 2-5) show? 189

From: patent US20240166690A1
